reported metric: melting point

| compound structure string | melting point |
| --- | --- |
| O=C(Nc1ccc(F)c(C(F)(F)F)c1)Nc1ccc(Br)c2ccc(O)cc12 | 215 °C |
| CC(=O)Oc1ccc2c(Cl)cc(Cl)c(NC(=O)Nc3cnc4ccccc4c3)c2c1 | 205 °C (dec.) |
| O=C(Nc1ccc(F)cc1)Nc1c(Br)cc(Br)c2ccc(O)cc12 | 222 to 225 °C |

Consider `O=C(NCc1cccc(F)c1)Nc1c(Br)cc(Br)c2ccc(O)cc12` . Its measured melting point is 215 to 218 °C

====

The following molecules are shown together with reported melting point values.

Sample answers from the record:
| compound structure string | reported metric | test value |
| --- | --- | --- |
| O=C(Nc1cccc(-c2ccc(C(=O)O)cc2)c1)Nc1c(Cl)cc(Cl)c2ccc(O)cc12 | melting point | 247 °C (dec.) |
| O=C(Nc1ccc2ccccc2c1)Nc1c(Cl)cc(Cl)c2ccc(O)cc12 | melting point | 263 to 265 °C |
| CN(C)c1ccc(NC(=O)Nc2c(Cl)cc(Cl)c3ccc(O)cc23)cc1 | melting point | 192 °C (dec.) |
| COc1ccc(CNC(=O)Nc2c(Cl)cc(Cl)c3ccc(O)cc23)cc1 | melting point | 223 to 226 °C |
| CCOC(=O)c1cccc(NC(=O)Nc2c(Cl)cc(Cl)c3ccc(O)cc23)c1 | melting point | 234 to 236 °C |
| CC(=O)Oc1ccc2c(Br)cc(Br)c(NC(=O)Nc3cccc(-c4ccccc4)c3)c2c1 | melting point | 235 °C (dec.) |
| O=C(Nc1cccc(-c2ccccc2Cl)c1)Nc1c(Cl)cc(Cl)c2ccc(O)cc12 | melting point | 228 to 232 °C |
| O=C(Nc1cccc2c1C(=O)c1ccccc1-2)Nc1c(Cl)cc(Cl)c2ccc([O-])cc12.[K+] | melting point | 195 °C |

Switching to the query record.
Consider `O=C(Nc1ccc(N2CCOCC2)c(Cl)c1)Nc1c(Cl)cc(Cl)c2ccc([O-])cc12.[K+]` . Its measured melting point is 188 °C

====

The following compounds are shown together with reported melting point values.

Consider `O=C(Nc1ccc(Cl)cc1)Nc1c(Br)cc(Br)c2ccc(O)cc12` . Its measured melting point is 229 to 233 °C

Consider `O=C(Nc1ccc2c(c1)C(=O)c1ccccc1-2)Nc1c(Cl)cc(Cl)c2ccc([O-])cc12.[K+]` . Its measured melting point is 200 °C

Consider `CCOC(=O)c1cccc(NC(=O)Nc2c(Br)cc(Br)c3ccc(O)cc23)c1` . Its measured melting point is 193 to 196 °C

Consider `O=C(Nc1ccc2c(c1)C(=O)c1ccccc1-2)Nc1c(Cl)cc(Cl)c2ccc(O)cc12` . Its measured melting point is 236 °C (dec.)

Consider `COc1ccccc1NC(=O)Nc1c(Br)cc(Br)c2ccc(O)cc12` . Its measured melting point is 228 to 230 °C

====

The following compounds are shown together with reported melting point values.
The answer is to be given in °C; state only the numeric part.

Consider `CN(C(=O)Nc1ccc2ccccc2c1)c1cccc2ccc(O)cc12` . Its measured melting point is 215

Consider `CCCc1ccc(NC(=O)Nc2c(Cl)cc(Cl)c3ccc(O)cc23)cc1` . Its measured melting point is 241
